Biological target: Peroxisome proliferator-activated receptor gamma (Homo sapiens)
Sequence (whole entry): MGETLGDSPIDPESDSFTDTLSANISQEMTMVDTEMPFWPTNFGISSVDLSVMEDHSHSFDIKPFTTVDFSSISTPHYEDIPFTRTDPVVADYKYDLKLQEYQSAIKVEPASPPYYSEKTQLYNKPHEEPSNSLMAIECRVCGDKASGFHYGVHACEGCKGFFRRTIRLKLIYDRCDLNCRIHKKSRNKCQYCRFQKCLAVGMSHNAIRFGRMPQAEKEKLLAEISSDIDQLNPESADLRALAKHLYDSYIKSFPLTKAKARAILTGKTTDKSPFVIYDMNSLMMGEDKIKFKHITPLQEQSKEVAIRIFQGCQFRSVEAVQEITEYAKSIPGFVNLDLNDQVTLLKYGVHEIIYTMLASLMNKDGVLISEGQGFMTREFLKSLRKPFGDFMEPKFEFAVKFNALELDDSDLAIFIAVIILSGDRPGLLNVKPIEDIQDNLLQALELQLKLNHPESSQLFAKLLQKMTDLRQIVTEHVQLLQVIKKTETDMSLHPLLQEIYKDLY
Assay: Agonist activity at human recombinant PPARgamma at 30 uM by GAL4 transactivation assay relative to control
Format: functional
Each entry below carries its recorded Fold change.

Chemical structure	Fold change
CC(=O)N[C@@H](Cc1ccc(OCCn2c3ccccc3c3ccccc32)cc1)C(=O)O	4.2
COc1ccc(COc2ccc(C[C@H](NC(C)=O)C(=O)O)cc2)cc1	5.4
CCOC(=O)[C@H](Cc1ccc(OCCC(=O)Nc2ccccc2C(F)(F)F)cc1)NC(C)=O	1.8
CC(=O)N[C@@H](Cc1ccc(OCCOc2ccc(C(=O)c3ccc(Cl)cc3)cc2)cc1)C(=O)O	2.4
CCN(CCOc1ccc(C[C@H](NC(C)=O)C(=O)O)cc1)c1cccc(C)c1	1.4
CCOC(=O)[C@H](Cc1ccc(OCCN(CC)c2cccc(C)c2)cc1)NC(C)=O	1.1
CCOC(=O)[C@H](Cc1ccc(OCc2ccc(OC)cc2)cc1)NC(C)=O	1.3
CC(=O)N[C@@H](Cc1ccc(OCCC(=O)Nc2ccccc2C(F)(F)F)cc1)C(=O)O	1.2
CCOC(=O)[C@H](Cc1ccc(OCCn2c3ccccc3c3ccccc32)cc1)NC(C)=O	5.4
CC(=O)N[C@@H](Cc1ccc(OCc2c3ccccc3cc3ccccc23)cc1)C(=O)O	1.3

###

Molecular target: Peroxisome proliferator-activated receptor alpha (Homo sapiens) (UniProt Q07869)
Sequence (Q07869 whole entry, the tested form may be a part): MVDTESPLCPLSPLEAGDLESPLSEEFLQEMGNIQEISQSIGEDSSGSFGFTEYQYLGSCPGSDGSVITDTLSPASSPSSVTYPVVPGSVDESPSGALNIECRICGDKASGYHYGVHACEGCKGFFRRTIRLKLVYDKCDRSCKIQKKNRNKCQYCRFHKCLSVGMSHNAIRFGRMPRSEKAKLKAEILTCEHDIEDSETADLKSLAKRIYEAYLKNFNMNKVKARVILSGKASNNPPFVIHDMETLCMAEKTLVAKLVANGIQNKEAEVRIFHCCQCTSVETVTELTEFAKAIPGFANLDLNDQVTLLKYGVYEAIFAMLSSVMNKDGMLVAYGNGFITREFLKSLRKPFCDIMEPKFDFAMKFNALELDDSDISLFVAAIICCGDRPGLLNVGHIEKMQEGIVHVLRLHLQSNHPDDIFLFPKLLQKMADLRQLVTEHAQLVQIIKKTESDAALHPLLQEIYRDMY
Assay: Agonist activity at human recombinant PPARalpha at 50 uM by GAL4 transactivation assay relative to control
Format: functional
Fold change: recorded values
Assay readout: Fold change

Chemical structure	Study system	Endpoint value
CC(=O)N[C@@H](Cc1ccc(OCc2ccc(Cl)cc2)cc1)C(=O)O	Peroxisome proliferator-activated receptor alpha (Homo sapiens) (UniProt Q07869)	3
CCOC(=O)[C@H](Cc1ccc(OCCn2c3ccccc3c3ccccc32)cc1)NC(C)=O	Peroxisome proliferator-activated receptor alpha (Homo sapiens) (UniProt Q07869)	1.6
CCOC(=O)[C@H](Cc1ccc(OCc2ccc(Cl)cc2)cc1)NC(C)=O	Peroxisome proliferator-activated receptor alpha (Homo sapiens) (UniProt Q07869)	2
CC(=O)N[C@@H](Cc1ccc(OCc2c3ccccc3cc3ccccc23)cc1)C(=O)O	Peroxisome proliferator-activated receptor alpha (Homo sapiens) (UniProt Q07869)	3.1
CCOC(=O)[C@H](Cc1ccc(OCCN(CC)c2cccc(C)c2)cc1)NC(C)=O	Peroxisome proliferator-activated receptor alpha (Homo sapiens) (UniProt Q07869)	2.9
CC(=O)N[C@@H](Cc1ccc(OCCC(=O)Nc2ccccc2C(F)(F)F)cc1)C(=O)O	Peroxisome proliferator-activated receptor alpha (Homo sapiens) (UniProt Q07869)	2.5
CCN(CCOc1ccc(C[C@H](NC(C)=O)C(=O)O)cc1)c1cccc(C)c1	Peroxisome proliferator-activated receptor alpha (Homo sapiens) (UniProt Q07869)	3.2
CCOC(=O)[C@H](Cc1ccc(OCCC(=O)Nc2ccccc2C(F)(F)F)cc1)NC(C)=O	Peroxisome proliferator-activated receptor alpha (Homo sapiens) (UniProt Q07869)	1
COc1ccc(COc2ccc(C[C@H](NC(C)=O)C(=O)O)cc2)cc1	Peroxisome proliferator-activated receptor alpha (Homo sapiens) (UniProt Q07869)	4.4
CCOC(=O)[C@H](Cc1ccc(OCCOc2ccc(C(=O)c3ccc(Cl)cc3)cc2)cc1)NC(C)=O	Peroxisome proliferator-activated receptor alpha (Homo sapiens) (UniProt Q07869)	3.3
Cc1cccc(Nc2cc(Cl)nc(SCC(=O)O)n2)c1C	Peroxisome proliferator-activated receptor alpha (Homo sapiens) (UniProt Q07869)	4.2
CC(=O)N[C@@H](Cc1ccc(OCCn2c3ccccc3c3ccccc32)cc1)C(=O)O	Peroxisome proliferator-activated receptor alpha (Homo sapiens) (UniProt Q07869)	3.4
CCOC(=O)[C@H](Cc1ccc(OCc2ccc(OC)cc2)cc1)NC(C)=O	Peroxisome proliferator-activated receptor alpha (Homo sapiens) (UniProt Q07869)	2.4
CCOC(=O)[C@H](Cc1ccc(OCc2c3ccccc3cc3ccccc23)cc1)NC(C)=O	Peroxisome proliferator-activated receptor alpha (Homo sapiens) (UniProt Q07869)	2.3
CC(=O)N[C@@H](Cc1ccc(OCCOc2ccc(C(=O)c3ccc(Cl)cc3)cc2)cc1)C(=O)O	Peroxisome proliferator-activated receptor alpha (Homo sapiens) (UniProt Q07869)	4.6

###

compounds and their reported Fold change
Target: Peroxisome proliferator-activated receptor gamma (Homo sapiens) (UniProt P37231)
Test: Agonist activity at human recombinant PPARgamma at 30 uM by GAL4 transactivation assay relative to control
Format: functional

Compound	Fold change
CCOC(=O)[C@H](Cc1ccc(OCc2c3ccccc3cc3ccccc23)cc1)NC(C)=O	0.8
CCOC(=O)[C@H](Cc1ccc(OCc2ccc(Cl)cc2)cc1)NC(C)=O	1
CC(=O)N[C@@H](Cc1ccc(OCc2ccc(Cl)cc2)cc1)C(=O)O	1.9
CCOC(=O)[C@H](Cc1ccc(OCCOc2ccc(C(=O)c3ccc(Cl)cc3)cc2)cc1)NC(C)=O	0.9
CN(CCOc1ccc(CC2SC(=O)NC2=O)cc1)c1ccccn1 (stereo not given)	27.2
